From: ChEMBL document CHEMBL1140951

logP overview
test name: Octanol-water partition coefficient, log P of the compound
Type: physicochemical
No unit in the answer, only the number.

Reference set (5 entries):
| record smiles | recorded result |
| --- | --- |
| C/C(=N\NC(=S)N(C)C)c1ccccn1 | 1.8 |
| C=CCNC(=S)N/N=C(\C)c1ccccn1 | 1.76 |
| CNC(=S)N/N=C(\C)c1ccccn1 | 2.7 |
| CCNC(=S)N/N=C(\C)c1ccccn1 | 1.52 |
| C/C(=N\NC(N)=S)c1ccccn1 | 1.52 |

Next item in the queue.
input: Item under review: C/C(=N\NC(=S)Nc1ccccc1)c1ccccn1 . Reported logP?
output: 2.99
